Here, each record is paired with measured recombinant UMI read abundance (log10) data.
Experiment: recombinant UMI read abundance after kanamycin selection (control-corrected) (log10(CPM+1)); higher = more efficient recombination; extreme values may be limits of the assay; sequences stand for … in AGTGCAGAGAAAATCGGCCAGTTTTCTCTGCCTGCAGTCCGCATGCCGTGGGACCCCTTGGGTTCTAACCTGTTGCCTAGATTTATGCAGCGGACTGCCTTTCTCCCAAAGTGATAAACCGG…AGGTTGGTTTCACT; site = the 11-nt donor
quantity_name: recombinant UMI read abundance (log10)

1) TAGGAACCATGGACCGGTTTTCCCGGTAATCCGTATTTGCG (site TAGGAAACTCG) ... 0.374
2) GGGACCTCATGGACCGGTTTTCCCGGTAATCCGTATTTGGT (site GGGACCTCTAC) ... 2
3) CGCTCAACATGGACCGGTTTTCCCGGTAATCCGTATTTGCT (site CGATCATCTAG) ... 0
4) CATAATACATGGACCGGTTTTCCCGGTAATCCGTATTTGGC (site CCTAATACTGC) ... 0
5) AGACACCCATGGACCGGTTTTCCCGGTAATCCGTATTTGCA (site AGACACCCTTG) ... 1.15

###

Experiment: recombinant UMI read abundance after kanamycin selection (control-corrected) (log10(CPM+1)); higher = more efficient recombination; extreme values may be limits of the assay; sequences stand for … in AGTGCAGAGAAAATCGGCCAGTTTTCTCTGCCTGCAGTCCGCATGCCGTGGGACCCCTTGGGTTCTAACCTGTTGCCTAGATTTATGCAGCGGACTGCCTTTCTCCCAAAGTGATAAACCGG…AGGTTGGTTTCACT; site = the 11-nt donor
quantity_name: recombinant UMI read abundance (log10)

1) GTCAGATCATGGACCGGTTTTCCCGGTAATCCGTATTTGCG (site GTCAGATCTCG) ... 1.77
2) TAATTCCCATGGACCGGTTTTCCCGGTAATCCGTATTTGCT (site TAATTCCCTAG) ... 1.65
3) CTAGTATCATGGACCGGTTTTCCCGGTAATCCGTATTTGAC (site CTTGTACCTGT) ... 0.169
4) CTCCTCTCATGGACCGGTTTTCCCGGTAATCCGTATTTGTA (site CTTCTCTCTTA) ... 0
5) CATTGAACATGGACCGGTTTTCCCGGTAATCCGTATTTGTT (site CATTGAACTAA) ... 0.0984
6) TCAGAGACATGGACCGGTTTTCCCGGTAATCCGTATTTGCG (site TCAGATACTCG) ... 0.784
7) GAGGAGGCATGGACCGGTTTTCCCGGTAATCCGTATTTGTG (site GTGGAGGCTCA) ... 0.26
8) CAAGCGCCATGGACCGGTTTTCCCGGTAATCCGTATTTGTA (site CAAGCGCCTCA) ... 0.173
9) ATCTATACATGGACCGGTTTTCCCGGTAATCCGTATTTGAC (site ATCTAAACTGT) ... 0

###

Assay: recombinant barcode read abundance after kanamycin selection (control-corrected) (log10(CPM+1)); higher = more efficient recombination; sequences stand for … in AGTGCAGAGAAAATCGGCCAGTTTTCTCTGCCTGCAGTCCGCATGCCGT…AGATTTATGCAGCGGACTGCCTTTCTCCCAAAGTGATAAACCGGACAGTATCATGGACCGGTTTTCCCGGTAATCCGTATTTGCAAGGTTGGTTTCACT; site = the 11-nt target
Decide by recombinant barcode read abundance (log10): equal to or exceeding 0.1 means met, less means not met.

1) AACGAGTCTTGGGTTCTAACCTGTTGCCT (site AACGAGTCTAG) ... met
2) GAATCTACTTGGGTTCTAACCTGTTGCTT (site GATTCTACTAA) ... not met
3) AGGTTCCCTTGGGTTCTAACCTGTTGCGG (site AGGTTCCCTCC) ... met
4) GCTCCTACTTGGGTTCTAACCTGTTGCCT (site GTTCCTACTAG) ... met
5) GCACTGCCTTGGGTTCTAACCTGTTGCCT (site GCCCTGCCTAG) ... met
6) GTCACAGCTTGGGTTCTAACCTGTTGCCT (site GTCAAAGCTTG) ... not met
7) GTAGTATCTTGGGTTCTAACCTGTTGCCT (site GTAGTACCTAG) ... met
8) TCGGATACTTGGGTTCTAACCTGTTGCTT (site TCGGATACTAC) ... met
9) TGTGCGGCTTGGGTTCTAACCTGTTGCCT (site CGTGCGGCTAG) ... not met
10) TGAGGGGCTTGGGTTCTAACCTGTTGCCT (site TGAGAGGCTAG) ... met

Source: the supplement of paper PMC11208160
